test: Clearance in mouse microsomes; format: ADME, Microsome
# microsomal CLint per entry

>  <Item smiles>
CC[C@H](C)[C@@H](NC(=O)[C@@H](NC(=O)[C@H](CCC(=O)O)NC(=O)[C@H](Cc1ccccc1)NC(=O)[C@@H](CCN)NC(=O)[C@H](CCN)NC(=O)[C@H](CO)NC(=O)[C@@H](Cc1c[nH]c2ccccc12)NC(=O)[C@@H](CO)NC(=O)CNC(=O)[C@@H](CCN)NC(=O)[C@H](N)C(C)C)C(C)C)C(=O)N[C@@H](C)C(=O)O

>  <microsomal CLint [µL/min/mg]>
25

$$$$
>  <Item smiles>
CC[C@H](C)[C@@H](NC(=O)[C@@H](NC(=O)[C@H](CCC(=O)O)NC(=O)[C@H](Cc1ccccc1)NC(=O)[C@@H](CCN)NC(=O)[C@H](CCN)NC(=O)[C@H](CO)NC(=O)[C@@H](Cc1c[nH]c2ccccc12)NC(=O)[C@@H](CO)NC(=O)CNC(=O)[C@@H](CCN)NC(=O)[C@H](NC(=O)[C@H](C)N)C(C)C)C(C)C)C(=O)N[C@@H](C)C(=O)O

>  <microsomal CLint [µL/min/mg]>
2

$$$$

###

test: Binding affinity to gram negative bacterial lipid II assessed as dissociation constant by ITC analysis; design: species or system Bacteria
Endpoint name: Kd (nM)

>  <Item smiles>
CC[C@H](C)[C@@H](NC(=O)[C@@H](NC(=O)[C@H](CCC(=O)O)NC(=O)[C@H](Cc1ccccc1)NC(=O)[C@@H](CCN)NC(=O)[C@H](CCN)NC(=O)[C@H](CO)NC(=O)[C@@H](Cc1c[nH]c2ccccc12)NC(=O)[C@@H](CO)NC(=O)CNC(=O)[C@@H](CCN)NC(=O)[C@H](N)C(C)C)C(C)C)C(=O)O

>  <Endpoint name>
Kd

>  <Unit text>
nM

>  <Val>
230

$$$$
>  <Item smiles>
CC[C@H](C)[C@@H](NC(=O)[C@@H](NC(=O)[C@H](CCC(=O)O)NC(=O)[C@H](Cc1ccccc1)NC(=O)[C@@H](CCN)NC(=O)[C@H](CCN)NC(=O)[C@H](CO)NC(=O)[C@@H](Cc1c[nH]c2ccccc12)NC(=O)[C@@H](CO)NC(=O)CNC(=O)[C@@H](CCN)NC(=O)[C@H](N)C(C)C)C(C)C)C(=O)N[C@@H](C)C(=O)O

>  <Endpoint name>
Kd

>  <Unit text>
nM

>  <Val>
600

$$$$
>  <Item smiles>
CC[C@H](C)[C@@H](NC(=O)[C@@H](NC(=O)[C@H](CCC(N)=O)NC(=O)[C@H](Cc1ccccc1)NC(=O)[C@@H](CCN)NC(=O)[C@H](CCN)NC(=O)[C@H](CO)NC(=O)[C@@H](Cc1c[nH]c2ccccc12)NC(=O)[C@@H](CO)NC(=O)CNC(=O)[C@@H](CCN)NC(=O)[C@H](N)C(C)C)C(C)C)C(=O)N[C@@H](C)C(=O)O

>  <Endpoint name>
Kd

>  <Unit text>
nM

>  <Val>
1400

$$$$
>  <Item smiles>
CC[C@H](C)[C@@H](NC(=O)[C@@H](NC(=O)[C@H](CCC(=O)O)NC(=O)[C@H](Cc1ccccc1)NC(=O)[C@@H](CCN)NC(=O)[C@H](C)NC(=O)[C@H](CO)NC(=O)[C@@H](Cc1c[nH]c2ccccc12)NC(=O)[C@@H](CO)NC(=O)CNC(=O)[C@@H](CCN)NC(=O)[C@H](NC(=O)[C@H](C)N)C(C)C)C(C)C)C(=O)N[C@@H](C)C(=O)O

>  <Endpoint name>
Kd

>  <Unit text>
nM

>  <Val>
3700

$$$$

Hello, the source for this data is ChEMBL document CHEMBL5518181, in case you need it.
